B1: E3 ubiquitin-protein ligase NEDD4-like, residues 539 to 589; numbered along this chain, Q96PU5 (parent)
chain: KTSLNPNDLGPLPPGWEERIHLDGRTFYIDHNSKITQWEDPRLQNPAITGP

Variants of: B1
Experiment: abundance fitness (aPCA) (normalised: wild type 0, dead -1); higher = more abundant; growth selection in yeast, the domain comes from the species named
Conditions: Homo sapiens
abundance fitness for assorted variants
The answer should be written as a number, with no unit following it.

Please review the entries below; each comes with its answer.
{"columns": ["mutantCode", "abundance fitness"],
 "data": [
  ["D23A", -0.779],
  ["N5P", -0.487],
  ["T26H", 0.084],
  ["L43T", -0.069]
]}

Using known records, supply abundance fitness for H21G
0.166

# return recorded abundance fitness for entry G50H
-0.555

Fill in reported abundance fitness for this entry: H31F
-0.479

Indicate its recorded abundance fitness; the variant in question is L4C
-0.252

Entry S3W needs its abundance fitness filled in; supply it.
-0.86

Quickly give me recorded abundance fitness for P6S
0.156
